Target: T1, cynomolgus ROR1 on CHO-K1-cynoROR1 cells (cynomolgus monkey, UniProt A0A2K5WTX7 30-937)
T1 construct: whole, on cells
Experiment: flow cytometry, CHO-K1-cynoROR1 cells
Can you tell me MAX(MFI) for the items I'm about to list?
// return numeric value only (unit: MFI, not printed)

query: # lookup: MAX(MFI) of PR303147 (antibody, human IgG1, V domains shown, HCAb (heavy chain-only, human IgG1 Fc), no light chain) VH: EVQLVESGGGLVQPGGSLRLSCAASGFTFSNFWMYWVRQAPGKGLVWVSRINSDGSSTNYADSVKGRFTISRDNAKNTLYLQMNSLRVEDTAVYSCAREGSGWYEDFDYWGQGTLVTVSS
result: 3.67e+06

query: Param item: PR303199 (antibody, human IgG1, V domains shown, HCAb (heavy chain-only, human IgG1 Fc), no light chain) VH: EVQLVESGGGLVKPGGSLRLSCAASGFTFSDYYMSWIRQAPGKGLEWIAYISSSGSTIYYADSVKGRFTISRDNAKNSLYLQMNSLRAEDTAIYYCAREYYGSENYDHFDYWGQGTLVTVSS
result: 6.85e+06

query: Param item: PR303125 (antibody, human IgG1, V domains shown, HCAb (heavy chain-only, human IgG1 Fc), no light chain) VH: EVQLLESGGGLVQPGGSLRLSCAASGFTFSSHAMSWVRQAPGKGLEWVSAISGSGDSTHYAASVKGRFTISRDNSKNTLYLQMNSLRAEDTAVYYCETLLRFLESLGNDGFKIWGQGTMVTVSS
result: 8.27e+06

query: Param item: PR303191 (antibody, human IgG1, V domains shown, HCAb (heavy chain-only, human IgG1 Fc), no light chain) VH: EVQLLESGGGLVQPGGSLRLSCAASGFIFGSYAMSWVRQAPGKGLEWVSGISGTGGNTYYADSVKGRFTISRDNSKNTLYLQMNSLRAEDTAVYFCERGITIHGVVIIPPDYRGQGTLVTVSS
result: 9.24e+06
